Reference source for all entries: patent US4510139A

- target-entity: lipoxygenase (Rattus norvegicus, UniProt P12527)
- Construct: microsomal fraction containing lipoxygenase and cyclooxygenase; endogenous in cells; host or cells: RBL-1 (rat basophilic leukemia) cells, homogenate / microsomal fraction
- Sequence (P12527 whole entry): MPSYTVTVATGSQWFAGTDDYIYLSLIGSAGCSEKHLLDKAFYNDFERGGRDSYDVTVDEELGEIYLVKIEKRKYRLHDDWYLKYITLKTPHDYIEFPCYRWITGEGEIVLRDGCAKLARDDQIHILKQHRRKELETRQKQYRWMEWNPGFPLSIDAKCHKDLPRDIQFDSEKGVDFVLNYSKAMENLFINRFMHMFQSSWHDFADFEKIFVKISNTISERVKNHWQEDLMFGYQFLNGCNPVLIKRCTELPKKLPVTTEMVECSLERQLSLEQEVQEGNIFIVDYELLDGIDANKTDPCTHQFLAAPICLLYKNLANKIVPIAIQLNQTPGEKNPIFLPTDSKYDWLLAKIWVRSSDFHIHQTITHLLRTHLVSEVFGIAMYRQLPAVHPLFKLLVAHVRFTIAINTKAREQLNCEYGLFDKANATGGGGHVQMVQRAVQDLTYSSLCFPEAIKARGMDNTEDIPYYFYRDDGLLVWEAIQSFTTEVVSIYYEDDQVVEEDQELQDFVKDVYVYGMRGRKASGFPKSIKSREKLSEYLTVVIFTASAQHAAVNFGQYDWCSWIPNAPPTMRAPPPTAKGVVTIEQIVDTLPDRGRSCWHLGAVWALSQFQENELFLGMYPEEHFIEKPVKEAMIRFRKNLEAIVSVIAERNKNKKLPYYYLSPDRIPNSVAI
- test-description: Inhibition of lipoxygenase derived from rat basophilic leukemia (RBL-1) cells, products L1 (5,12-di-HETE) and L2 (5-HETE)
- Assay type: biochemical
- condition-description: dose of 1 μM; L2 = 5-HETE; read-out: % Inhibition of lipoxygenase (L2) formation
property-name: inhibition at 1 µM (%)

[[record]]
record_smiles = "O=C(c1ccccc1Nc1ccc(O)cc1)N1CCOCC1"
observed_result = 42

[[record]]
record_smiles = "O=C(c1ccccc1Nc1ccc(O)cc1)N1CCCC1"
observed_result = 52

[[record]]
record_smiles = "CCN(CC)C(=O)c1cc(Cl)ccc1Nc1ccc(O)cc1"
observed_result = 73

[[record]]
record_smiles = "CN(C)C(=O)c1ccccc1Nc1ccc(O)cc1"
observed_result = 56

[[record]]
record_smiles = "CCN(CC)C(=O)c1ccccc1Nc1ccc(O)cc1"
observed_result = 63

[[record]]
record_smiles = "CC1CCN(C(=O)c2ccccc2Nc2ccc(O)cc2)CC1"
observed_result = 77

[[record]]
record_smiles = "CNC(=O)c1ccccc1Nc1ccc(O)cc1"
observed_result = 48

[[record]]
record_smiles = "CC(C)NC(=O)c1ccccc1Nc1ccc(O)cc1"
observed_result = 78

[[record]]
record_smiles = "O=C(c1ccc(Cl)cc1Nc1ccc(O)cc1)N1CCCCC1"
observed_result = 44

[[record]]
record_smiles = "CCN(C)C(=O)c1ccccc1Nc1ccc(O)cc1"
observed_result = 77

[[record]]
record_smiles = "O=C(c1ccc(Cl)cc1Nc1ccc(O)cc1)N1CCCC1"
observed_result = 42

[[record]]
record_smiles = "O=C(c1cc(Cl)ccc1Nc1ccc(O)cc1)N1CCCCC1"
observed_result = 75


----------
- target-entity: lipoxygenase (Rattus norvegicus)
- Construct: microsomal fraction containing lipoxygenase and cyclooxygenase; endogenous in cells; host or cells: RBL-1 (rat basophilic leukemia) cells, homogenate / microsomal fraction
- test-description: Inhibition of lipoxygenase derived from rat basophilic leukemia (RBL-1) cells, products L1 (5,12-di-HETE) and L2 (5-HETE)
- Type: biochemical
- condition-description: IC50 L1, L1 = 5,12-di-HETE
- Experimental: The primary screening test used is a determination of the inhibition of lipoxygenase and cyclooxygenase derived from rat basophilic leukemia (RBL-1) cells. The test was carried out according to the following procedure: Single cell suspensions of RBL-1 cells are homogenized to obtain the microsomal fraction containing lipoxygenase and cyclooxygenase. […] The peak areas of radioactivity representing the products are located by scanning the plates. […]
Output 1.0 for records whose IC50 is lower than 400 nM, 0.0 for records at or above 400 nM.

[[record]]
molecule = "CNC(=O)c1ccc(Cl)cc1Nc1ccc(O)cc1"
discrete_label = 1.0

[[record]]
molecule = "COc1ccc(Nc2ccc(O)cc2)c(C(=O)N2CCCCC2)c1"
discrete_label = 0.0

[[record]]
molecule = "NC(=O)c1ccccc1Nc1ccc(O)cc1 [Example 3(b), 2-(4-Hydroxyphenylamino)benzamide]"
discrete_label = 1.0

[[record]]
molecule = "CCCNC(=O)c1ccccc1Nc1ccc(O)cc1"
discrete_label = 1.0

[[record]]
molecule = "O=C(c1ccccc1Nc1ccc(O)cc1)N1CCCCC1"
discrete_label = 0.0

[[record]]
molecule = "O=C(c1ccccc1Nc1ccccc1O)N1CCCCC1"
discrete_label = 0.0

[[record]]
molecule = "COc1ccc(Nc2ccc(O)cc2)c(C(=O)NCc2ccccc2)c1"
discrete_label = 1.0

[[record]]
molecule = "O=C(NC1CCCCC1)c1ccccc1Nc1ccc(O)cc1"
discrete_label = 1.0

[[record]]
molecule = "O=C(NCc1ccccc1)c1ccccc1Nc1ccc(O)cc1"
discrete_label = 1.0

[[record]]
molecule = "O=C1C=CC(=Nc2ccccc2C(=O)N2CCCCC2)C=C1"
discrete_label = 0.0

[[record]]
molecule = "CCCN(CC)C(=O)c1ccccc1Nc1ccc(O)cc1"
discrete_label = 1.0

